- run.conditions: human gut metagenome, 24 h, 2 µM; also: call rule not given here
reported.metric: Bacterial Biotransformation

{"columns": ["compound", "value"],
 "data": [
  ["CNNCc1ccc(C(=O)NC(C)C)cc1", "Compound NOT metabolized"],
  ["CCc1oc2ccccc2c1C(=O)c1cc(Br)c(O)c(Br)c1", "Compound NOT metabolized"],
  ["CC(C)(C)NCC(O)c1cc(Cl)c(N)c(Cl)c1 (configuration not stated)", "Compound NOT metabolized"],
  ["CC(C)(C)N.CCC[C@H](N[C@@H](C)C(=O)N1[C@H](C(=O)O)C[C@@H]2CCCC[C@@H]21)C(=O)OCC", "Compound metabolized"],
  ["CN1[C@@H]2CC[C@H]1C[C@@H](OC(=O)c1c[nH]c3ccccc13)C2", "Compound NOT metabolized"],
  ["CCOc1ccc2nc(S(N)(=O)=O)sc2c1 [ETHOXZOLAMIDE]", "Compound NOT metabolized"],
  ["Cc1nc(Nc2ncc(C(=O)Nc3c(C)cccc3Cl)s2)cc(N2CCN(CCO)CC2)n1 [DASATINIB ANHYDROUS]", "Compound NOT metabolized"],
  ["Br.COc1ccc2c(c1)[C@]13CCCC[C@@H]1[C@H](C2)N(C)CC3.O [DEXTROMETHORPHAN HYDROBROMIDE]", "Compound metabolized"],
  ["Cc1cc2c(s1)Nc1ccccc1N=C2N1CCN(C)CC1", "Compound NOT metabolized"],
  ["CC(N)C12CC3CC(CC(C3)C1)C2 (configuration not stated)", "Compound NOT metabolized"],
  ["CC(C)(C)NC[C@H](O)COc1nsnc1N1CCOCC1.O=C(O)/C=C\\C(=O)O [TIMOLOL MALEATE]", "Compound NOT metabolized"],
  ["Nc1nc(N)nc(-c2cc(Cl)ccc2Cl)n1.O=C(O)/C=C\\C(=O)O [IRSOGLADINE MALEATE]", "Compound NOT metabolized"]
]}

---

- run.conditions: human gut metagenome, 24 h, 2 µM

{"columns": ["compound", "Bacterial Biotransformation"],
 "data": [
  ["N=C(N)NC(=O)Cc1c(Cl)cccc1Cl", "Compound NOT metabolized"],
  ["COc1cc2nc(N3CCN(C(=O)C4CCCO4)CC3)nc(N)c2cc1OC (stereo unspecified)", "Compound metabolized"],
  ["COCCCC/C(=N\\OCCN)c1ccc(C(F)(F)F)cc1.O=C(O)/C=C\\C(=O)O [FLUVOXAMINE MALEATE]", "Compound NOT metabolized"],
  ["CCCN1C[C@H](CSC)C[C@@H]2c3cccc4[nH]cc(c34)C[C@H]21.CS(=O)(=O)O [PERGOLIDE MESYLATE]", "Compound NOT metabolized"],
  ["CC#CCn1c(N2CCC[C@@H](N)C2)nc2c1c(=O)n(Cc1nc(C)c3ccccc3n1)c(=O)n2C", "Compound NOT metabolized"],
  ["C#C[C@]1(OC(C)=O)CC[C@H]2[C@@H]3CCC4=CC(=O)CC[C@@H]4[C@H]3CC[C@@]21C [NORETHINDRONE ACETATE]", "Compound metabolized"]
]}

---

- run.conditions: human gut metagenome, 24 h, 2 µM
reported.metric: Bacterial Biotransformation

{"columns": ["molecule", "value"],
 "data": [
  ["O=P1(N(CCCl)CCCl)NCCCO1 (configuration not stated) [CYCLOPHOSPHAMIDE ANHYDROUS]", "Compound metabolized"],
  ["CC(C)(C)NC[C@H](O)COc1nsnc1N1CCOCC1.O=C(O)/C=C\\C(=O)O [TIMOLOL MALEATE]", "Compound NOT metabolized"],
  ["O=C1N=C([O-])NC1(c1ccccc1)c1ccccc1.[Na+] [PHENYTOIN SODIUM]", "Compound metabolized"],
  ["OCCN(CCO)c1nc(N2CCCCC2)c2nc(N(CCO)CCO)nc(N3CCCCC3)c2n1", "Compound metabolized"],
  ["CN1CCC(OC(c2ccccc2)c2ccccc2)CC1", "Compound metabolized"],
  ["CCCCC(=O)O[C@]1(C(=O)CO)[C@@H](C)C[C@H]2[C@@H]3CCC4=CC(=O)C=C[C@]4(C)[C@@]3(F)[C@@H](O)C[C@@]21C [BETAMETHASONE VALERATE]", "Compound metabolized"],
  ["CN(C)CCOC(c1ccc(Cl)cc1)c1ccccn1.O=C(O)/C=C\\C(=O)O (configuration not stated) [CARBINOXAMINE MALEATE]", "Compound metabolized"],
  ["CC[C@H](C)C(=O)O[C@H]1CCC=C2C=C[C@H](C)[C@H](CC[C@@H]3C[C@@H](O)CC(=O)O3)[C@H]21", "Compound metabolized"],
  ["CN(C)CCC=C1c2ccccc2COc2ccccc21 [DOXEPIN]", "Compound metabolized"],
  ["CCN(CC)CCOC(=O)C1(C2CCCCC2)CCCCC1", "Compound metabolized"],
  ["CN(C)CCOC(C)(c1ccccc1)c1ccccn1.O=C(O)CCC(=O)O (configuration not stated) [DOXYLAMINE SUCCINATE]", "Compound NOT metabolized"],
  ["O=C(NC(Cc1cc(=O)[nH]c2ccccc12)C(=O)O)c1ccc(Cl)cc1 (configuration not stated) [REBAMIPIDE]", "Compound NOT metabolized"],
  ["COc1ccc([C@@H]2Sc3ccccc3N(CCN(C)C)C(=O)[C@@H]2OC(C)=O)cc1", "Compound metabolized"],
  ["CC(C)(C)NCC(O)COc1cccc2c1CC(O)C(O)C2 (configuration not stated)", "Compound metabolized"],
  ["CCN(C)C(=O)Oc1cccc([C@H](C)N(C)C)c1.O=C(O)C(O)C(O)C(=O)O [RIVASTIGMINE TARTRATE]", "Compound NOT metabolized"],
  ["CCN(CC)C(=O)C1(c2ccccc2)CC1CN (configuration not stated)", "Compound NOT metabolized"],
  ["CC(C)[C@H]1CC[C@H](C(=O)N[C@H](Cc2ccccc2)C(=O)O)CC1 [NATEGLINIDE]", "Compound metabolized"]
]}

---

- run.conditions: human gut metagenome, 24 h, 2 µM
reported.metric: Bacterial Biotransformation

{"columns": ["molecule", "value"],
 "data": [
  ["CCOC(=O)C1=C[C@]2(CC)CCCN3CCc4c(n1c1ccccc41)[C@@H]32 [VINPOCETINE]", "Compound metabolized"],
  ["COc1ccc2c(c1)c(CC(=O)O)c(C)n2C(=O)c1ccc(Cl)cc1 [INDOMETHACIN]", "Compound metabolized"],
  ["COc1ccnc(C[S+]([O-])c2nc3ccc(OC(F)F)cc3[nH]2)c1OC (stereo not given) [PANTOPRAZOLE]", "Compound metabolized"],
  ["CCN(CC)CCOC(=O)C1(C2CCCCC2)CCCCC1 [DICYCLOMINE]", "Compound metabolized"],
  ["CC(=O)CCCCn1c(=O)c2c(ncn2C)n(C)c1=O [PENTOXIFYLLINE]", "Compound NOT metabolized"],
  ["CN(C)C(=O)Oc1cccc([N+](C)(C)C)c1.[Br-] [NEOSTIGMINE BROMIDE]", "Compound NOT metabolized"],
  ["COC(=O)[C@H](c1ccccc1Cl)N1CCc2sccc2C1.O=S(=O)(O)O [CLOPIDOGREL BISULFATE]", "Compound metabolized"],
  ["O=C1CN2Cc3c(ccc(Cl)c3Cl)N=C2N1 [ANAGRELIDE]", "Compound metabolized"],
  ["CN1CCC(OC(c2ccccc2)c2ccccc2)CC1", "Compound metabolized"],
  ["C#C[C@]1(OC(C)=O)CC[C@H]2[C@@H]3CCC4=C[C@@H](OC(C)=O)CC[C@@H]4[C@H]3CC[C@@]21C [ETHYNODIOL DIACETATE]", "Compound metabolized"],
  ["CCOc1ccccc1OCCN[C@H](C)Cc1ccc(OC)c(S(N)(=O)=O)c1.Cl [TAMSULOSIN HYDROCHLORIDE]", "Compound NOT metabolized"],
  ["COc1cc(C(=O)NCc2ccc(OCCN(C)C)cc2)cc(OC)c1OC [TRIMETHOBENZAMIDE]", "Compound NOT metabolized"],
  ["Cc1nc(Nc2ncc(C(=O)Nc3c(C)cccc3Cl)s2)cc(N2CCN(CCO)CC2)n1 [DASATINIB ANHYDROUS]", "Compound metabolized"],
  ["CN1CCN2c3ccccc3Cc3ccccc3C2C1 (stereo not given) [MIANSERIN]", "Compound metabolized"],
  ["COc1ccc2cc([C@H](C)C(=O)O)ccc2c1 [NAPROXEN]", "Compound metabolized"],
  ["O=C(CCCN1CCC2(CC1)C(=O)NCN2c1ccccc1)c1ccc(F)cc1 [SPIPERONE]", "Compound NOT metabolized"],
  ["C[C@]12CCC(=O)C=C1[C@@H]1C[C@@H]1[C@H]1[C@@H]3[C@@H]4C[C@@H]4[C@@]4(CCC(=O)O4)[C@@]3(C)CC[C@@H]12 [DROSPIRENONE]", "Compound metabolized"],
  ["OCCN(CCO)c1nc(N2CCCCC2)c2nc(N(CCO)CCO)nc(N3CCCCC3)c2n1 [DIPYRIDAMOLE]", "Compound metabolized"],
  ["COc1ccc(C(CN(C)C)C2(O)CCCCC2)cc1 (stereo not given) [VENLAFAXINE]", "Compound NOT metabolized"],
  ["O=P1(N(CCCl)CCCl)NCCCO1 (stereo not given) [CYCLOPHOSPHAMIDE ANHYDROUS]", "Compound metabolized"],
  ["CC1Cc2ccccc2N1NC(=O)c1ccc(Cl)c(S(N)(=O)=O)c1 (stereo not given) [INDAPAMIDE]", "Compound NOT metabolized"],
  ["COc1ccc([C@@H]2Sc3ccccc3N(CCN(C)C)C(=O)[C@@H]2OC(C)=O)cc1 [DILTIAZEM]", "Compound metabolized"],
  ["CCCCC(=O)O[C@]1(C(=O)CO)[C@@H](C)C[C@H]2[C@@H]3CCC4=CC(=O)C=C[C@]4(C)[C@@]3(F)[C@@H](O)C[C@@]21C [BETAMETHASONE VALERATE]", "Compound metabolized"],
  ["CCOC(=O)[C@H](CCc1ccccc1)N[C@@H](C)C(=O)N1CCC[C@H]1C(=O)O.O=C(O)/C=C\\C(=O)O [ENALAPRIL MALEATE]", "Compound NOT metabolized"],
  ["CC1=C(CC(=O)O)c2cc(F)ccc2/C1=C\\c1ccc([S+](C)[O-])cc1 (stereo not given)", "Compound metabolized"]
]}
